Sourced from the supplement of paper PMC8498969

test system: HEK293; assay: IC50 for inhibition of ZIKV NS1 production
Label Yes when IC50 is strictly below 7 µM; otherwise label No.

molecule	category
CN(C)CCN(C)C(=O)c1ccc(NC(=O)Nc2ccc(-c3nc(N4CCOCC4)c4ccn(CC(F)(F)F)c4n3)cc2)cc1	Yes
Cc1cc(Nc2cc(N3CCN(C)CC3)nc(Sc3ccc(NC(=O)C4CC4)cc3)n2)n[nH]1	No
Cc1cc(C2CCCCC2)n(O)c(=O)c1	No
O=C(Nc1ncc(-c2cc(C(F)F)nn2-c2c(Cl)cccc2Cl)s1)C1CC1	Yes
CC(C)c1nn(-c2c(Cl)cccc2Cl)c2nc(Cc3ccc(OCCO)cc3)[nH]c(=O)c12	Yes
CC(=O)Nc1ccc([C@H](C)C(=O)Nc2ncc(C(C)C)s2)cc1	No
N=C(N)NN=C(/C=C/c1ccc([N+](=O)[O-])o1)/C=C/c1ccc([N+](=O)[O-])o1	Yes
COc1c(C)c2c(c(O)c1C/C=C(\C)CCC(=O)O)C(=O)OC2	Yes
C[C@@H]1C[C@@H]([C@H](O)CC2CC(=O)NC(=O)C2)C(=O)[C@@H](C)C1	Yes
CC(C)C[C@H](NC(=O)[C@H](Cc1ccccc1)NC(=O)c1cnccn1)B(O)O	Yes
O=C(Cc1ccc(-c2ccc(OCCN3CCOCC3)cc2)cn1)NCc1ccccc1	Yes
O=C1NC(=O)[C@@H](c2cn3c4c(cccc24)CCC3)[C@@H]1c1c[nH]c2ccccc12	No
COC(=O)[C@]12CCC(C)(C)C[C@H]1[C@H]1C(=O)C=C3[C@@]4(C)C=C(C#N)C(=O)C(C)(C)[C@@H]4CC[C@@]3(C)[C@]1(C)CC2	Yes
C/C=C(\C)C(=O)N[C@@H](c1ccccc1)[C@@H](O)C(=O)O[C@H]1C[C@@]2(O)[C@@H](OC(=O)c3ccccc3)[C@@H]3[C@]4(OC(C)=O)CO[C@@H]4C[C@H](O)[C@@]3(C)C(=O)[C@H](OC(C)=O)C(=C1C)C2(C)C	Yes
CCCCC1C(=O)N(c2ccccc2)N(c2ccc(O)cc2)C1=O (centres undefined)	No
S=c1nc[nH]c2nc[nH]c12	No
Oc1c(Cl)cc(Cl)c2cccnc12	No
O=C(Nc1ccc([N+](=O)[O-])cc1Cl)c1cc(Cl)ccc1O	No
CCc1nc(N)nc(N)c1-c1ccc(Cl)cc1	No
